# reported IC50; entries follow
Tested on: H1975OR
assayRemarks: CCK-8 tumor cell proliferation, H1975OR
Type: cell-based
conditionParameters: H1975OR cells (Osimertinib resistant), 72 hours
Please respond with the number in µM and leave the unit unwritten.

Use these answered entries as a reference point.
[[record]]
molecule = "COc1cc(N2CCN(CCCCCCCCNC(=O)C3C[C@H]4CC[C@@H]3C4)CC2)ccc1Nc1ncc2c(C)cc(=O)n(-c3cccc(NC(=O)C4CC4)c3)c2n1 (stereo partly drawn)"
readoutnumber = 0.103

[[record]]
molecule = "C=CC(=O)Nc1cccc(-n2c(=O)cc(C)c3cnc(Nc4ccc(N5CCN(CCCCCCCCCCCCCCNC(=O)CC67CC8CC(CC(C8)C6)C7)CC5)cc4OC)nc32)c1"
readoutnumber = 0.125

[[record]]
molecule = "C=CC(=O)Nc1cccc(-n2c(=O)cc(C)c3cnc(Nc4ccc(N5CCN(CCCCCCCCCCNC(=O)CC67CC8CC(CC(C8)C6)C7)CC5)cc4OC)nc32)c1"
readoutnumber = 0.083

[[record]]
molecule = "COc1cc(N2CCN(CCCCCCCCCCCCNC(=O)CC34CC5CC(CC(C5)C3)C4)CC2)ccc1Nc1ncc2c(C)cc(=O)n(-c3cccc(NC(=O)C(C)C)c3)c2n1"
readoutnumber = 0.0196

[[record]]
molecule = "COc1cc(N2CCN(CCCCCCCCCCCCNC(=O)CC34CC5CC(CC(C5)C3)C4)CC2)ccc1Nc1ncc2c(C)cc(=O)n(-c3cccc(NCC4CCC4)c3)c2n1"
readoutnumber = 0.0102

[[record]]
molecule = "CCCCCCCCN1CCN(c2ccc(Nc3ncc4c(C)cc(=O)n(-c5cccc(NC(=O)C6CC6)c5)c4n3)c(OC)c2)CC1"
readoutnumber = 8.84

[[record]]
molecule = "COc1cc(N2CCN(CCCCCCCCCCCCNC(=O)CC34CC5CC(CC(C5)C3)C4)CC2)ccc1Nc1ncc2c(C)cc(=O)n([C@H]3CCCN(C(=O)C4CC4)C3)c2n1"
readoutnumber = 0.00682

[[record]]
molecule = "CCC(=O)Nc1cccc(-n2c(=O)cc(C)c3cnc(Nc4ccc(N5CCN(CCCCCCCCCCCCNC(=O)CC67CC8CC(CC(C8)C6)C7)CC5)cc4OC)nc32)c1"
readoutnumber = 0.0107

[[record]]
molecule = "COc1cc(OCCCCCCCCCCCCNC(=O)CC23CC4CC(CC(C4)C2)C3)ccc1Nc1ncc2c(C)cc(=O)n(-c3cccc(NC(=O)C4CC4)c3)c2n1"
readoutnumber = 0.177

[[record]]
molecule = "COc1cc(OCCOCCCCCCCCCCCCNC(=O)CC23CC4CC(CC(C4)C2)C3)ccc1Nc1ncc2c(C)cc(=O)n(-c3cccc(NC(=O)C4CC4)c3)c2n1"
readoutnumber = 1.67


Turning now to a further record.
Name the reported IC50 value associated with the molecule `COc1cc(N2CCN(CCCCCCCCNC(=O)CC(C)(C)C)CC2)ccc1Nc1ncc2c(C)cc(=O)n(-c3cccc(NC(=O)C4CC4)c3)c2n1` 0.44

----------
System: A431
assayRemarks: CCK-8 tumor cell proliferation, A431
Format: cell-based
conditionParameters: Homo sapiens, A-431, A431 cells, 72 hours
endpointName: IC50 (µM)
Please respond with the number in µM and leave the unit unwritten.

[[record]]
compound = "COc1cc(N2CCN(CCCCCCCCCCCCNC(=O)CC34CC5CC(CC(C5)C3)C4)CC2)ccc1Nc1ncc2c(C)cc(=O)n(-c3cccc(NC(=O)C4CC4)c3)c2n1 [ZX-HYT-11]"
systemundertest = "A431"
readoutnumber = 0.0093


Turning now to a further record.
Name the reported IC50 value associated with the compound COc1cc(N2CCN(CCCCCCCCCCCCNC(=O)CC34CC5CC(CC(C5)C3)C4)CC2)ccc1Nc1ncc2c(C)cc(=O)n(-c3cccc(N)c3)c2n1 [ZX-HYT-17] 0.0225

----------
# reported Dmax at 1 µM; entries follow
systemUnderTest: AKT1 (Homo sapiens, UniProt P31749)
Construct: AKT1, AKT2, and AKT3 proteins in H1975-OR cells; endogenous in cells; host or cells: H1975-OR (osimertinib-resistant H1975)
Sequence (P31749 whole entry): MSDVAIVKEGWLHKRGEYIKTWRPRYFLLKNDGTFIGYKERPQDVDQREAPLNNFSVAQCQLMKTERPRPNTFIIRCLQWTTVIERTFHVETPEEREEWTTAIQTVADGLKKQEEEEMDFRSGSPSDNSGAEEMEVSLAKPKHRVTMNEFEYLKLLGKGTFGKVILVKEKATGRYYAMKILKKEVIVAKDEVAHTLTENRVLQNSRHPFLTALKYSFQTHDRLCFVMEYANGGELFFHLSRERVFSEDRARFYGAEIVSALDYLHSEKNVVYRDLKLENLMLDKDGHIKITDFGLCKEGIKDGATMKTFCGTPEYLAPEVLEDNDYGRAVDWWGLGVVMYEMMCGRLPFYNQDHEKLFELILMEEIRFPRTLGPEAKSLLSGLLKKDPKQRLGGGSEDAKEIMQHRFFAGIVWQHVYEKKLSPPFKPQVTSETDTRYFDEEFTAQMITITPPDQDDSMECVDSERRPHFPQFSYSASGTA
assayRemarks: Western Blot, degradation of AKT1 protein in H1975-OR cells
Type: cell-based
conditionParameters: 1000 nM, 24 hours, maximum degradation rate
Method: Cell line: Non-small cell lung cancer H1975-OR cell line, which is an Osimertinib resistant H1975 cell line, and could be obtained through low dose gradual addition culture. Specific method: H1975 cells were spread in a 10 cm culture dish at a convergence rate of 60-70%, added 50 nM of Osimertinib to the culture medium. After the cell state stabilized, the concentration of Osimertinib was gradually double to 3 μM. […]
Please respond with the number in % and leave the unit unwritten.

[[record]]
compound = "COc1cc(N2CCN(CCCCCCCCCCCCNC(=O)CC34CC5CC(CC(C5)C3)C4)CC2)ccc1Nc1ncc2c(C)cc(=O)n(-c3cccc(NC4CCN(C)CC4)c3)c2n1 [ZX-HYT-18]"
readoutnumber = 0

[[record]]
compound = "COc1cc(N2CCN(CCCCCCCCNC(=O)C3CCC(F)(F)CC3)CC2)ccc1Nc1ncc2c(C)cc(=O)n(-c3cccc(NC(=O)C4CC4)c3)c2n1 [ZX-HYT-34]"
readoutnumber = 55.4


Turning now to a further record.
Name the reported Dmax at 1 µM value associated with the compound COc1cc(N2CCN(CCCCCCCCCCCCNC(=O)CC34CC5CC(CC(C5)C3)C4)CC2)ccc1Nc1ncc2c(C)cc(=O)n(-c3cccc(NC(=O)C4CC4)c3)c2n1 [ZX-HYT-11] 0

----------
Tested on: BT-549
assayRemarks: CCK-8 tumor cell proliferation, BT-549
Format: cell-based
conditionParameters: Homo sapiens, BT-549 cells, 72 hours
endpointName: IC50 (µM)
Please respond with the number in µM and leave the unit unwritten.

[[record]]
compound = "COc1cc(N2CCN(C(=O)NC34CC5CC(CC(C5)C3)C4)CC2)ncc1Nc1ncc2c(C)cc(=O)n(-c3cccc(NC(=O)C4CC4)c3)c2n1 [ZX-HYT-71]"
endpointname = "IC50"
readoutnumber = 1.25


Turning now to a further record.
Name the reported IC50 value associated with the compound COc1cc(N2CCN(CCCCCCCCCCCCNC(=O)CC34CC5CC(CC(C5)C3)C4)CC2)ccc1Nc1ncc2c(C)cc(=O)n(-c3cccc(NCC4CC4)c3)c2n1 [ZX-HYT-19] 0.00421

----------
systemUnderTest: AKT1 (Homo sapiens)
Construct: AKT1, AKT2, and AKT3 proteins in H1975-OR cells; endogenous in cells; host or cells: H1975-OR (osimertinib-resistant H1975)
assayRemarks: Western Blot, degradation of AKT1 protein in H1975-OR cells
Assay type: cell-based
conditionParameters: 1000 nM, 24 hours, maximum degradation rate
endpointName: Dmax at 1 µM (%)
Please respond with the number in % and leave the unit unwritten.

Use these answered entries as a reference point.
[[record]]
molsmiles = "C=CC(=O)Nc1cccc(-n2c(=O)cc(C)c3cnc(Nc4ccc(N5CCN(CCCCCCCCCCNC(=O)CC67CC8CC(CC(C8)C6)C7)CC5)cc4OC)nc32)c1"
unitofmeasurement = "%"
readoutnumber = 0

[[record]]
molsmiles = "CCC(=O)Nc1cccc(-n2c(=O)cc(C)c3cnc(Nc4ccc(N5CCN(CCCCCCCCNC(=O)CC67CC8CC(CC(C8)C6)C7)CC5)cc4OC)nc32)c1"
unitofmeasurement = "%"
readoutnumber = 0

[[record]]
molsmiles = "COc1cc(N2CCN(CCCCCCCCCCCCNC(=O)CC34CC5CC(CC(C5)C3)C4)CC2)ccc1Nc1ncc2c(C)cc(=O)n(-c3ccccc3)c2n1"
unitofmeasurement = "%"
readoutnumber = 0


Name the reported Dmax at 1 µM value associated with the compound `COc1cc(N2CCN(CCCCCCCCCCCCNC(=O)CC34CC5CC(CC(C5)C3)C4)CC2)ccc1Nc1ncc2c(C)cc(=O)n([C@H]3CCC[C@@H](NC(=O)C4CC4)C3)c2n1` 0

Name the reported Dmax at 1 µM value associated with the compound `COc1cc(N2CCN(CCCCCCCCCCCCNC(=O)CC34CC5CC(CC(C5)C3)C4)CC2)ccc1Nc1ncc2c(C)cc(=O)n(-c3cccc(OCC4CC4)c3)c2n1` 32

Name the reported Dmax at 1 µM value associated with the compound `COc1cc(N2CCN(CCCCCCCCCCCCNC(=O)CC34CC5CC(CC(C5)C3)C4)CC2)ccc1Nc1ncc2c(C)cc(=O)n(-c3cccc(NC4CNC4)c3)c2n1` 32.8

Name the reported Dmax at 1 µM value associated with the compound `COc1cc(N2CCN(CCCCCCCCCCCCNC(=O)CC34CC5CC(CC(C5)C3)C4)CC2)ccc1Nc1ncc2c(C)cc(=O)n(-c3cccc(NC(=O)C(C)C)c3)c2n1` 0

----------
Test system: A549
assayRemarks: CCK-8 tumor cell proliferation, A549
Assay type: cell-based
conditionParameters: Homo sapiens, A549 cells, 72 hours
endpointName: IC50 (µM)
Please respond with the number in µM and leave the unit unwritten.

[[record]]
molsmiles = "COc1cc(N2CCN(CCNC(=O)CC34CC5CC(CC(C5)C3)C4)CC2)ccc1Nc1ncc2c(C)cc(=O)n(-c3cccc(NC(=O)C4CC4)c3)c2n1"
readoutnumber = 0.629

[[record]]
molsmiles = "COc1cc(N2CCN(C(=O)C34CC5CC(CC(C5)C3)C4)CC2)ccc1Nc1ncc2c(C)cc(=O)n(-c3cccc(NC(=O)C4CC4)c3)c2n1"
readoutnumber = 1.17

[[record]]
molsmiles = "COc1cc(N2CCN(C(=O)CC34CC5CC(CC(C5)C3)C4)CC2)ccc1Nc1ncc2c(C)cc(=O)n(-c3cccc(NC(=O)C4CC4)c3)c2n1"
readoutnumber = 0.668


Turning now to a further record.
Name the reported IC50 value associated with the compound `COc1cc(N2CCN(CCCCNC(=O)CC34CC5CC(CC(C5)C3)C4)CC2)ccc1Nc1ncc2c(C)cc(=O)n(-c3cccc(NC(=O)C4CC4)c3)c2n1` 0.833
